Catalogue of Ki readings, one per entry.
target: Sodium-dependent dopamine transporter (Rattus norvegicus, UniProt P23977); experiment: Inhibition of the uptake of tritiated dopamine (DA) in rat synaptosomes
Sequence (P23977 whole entry): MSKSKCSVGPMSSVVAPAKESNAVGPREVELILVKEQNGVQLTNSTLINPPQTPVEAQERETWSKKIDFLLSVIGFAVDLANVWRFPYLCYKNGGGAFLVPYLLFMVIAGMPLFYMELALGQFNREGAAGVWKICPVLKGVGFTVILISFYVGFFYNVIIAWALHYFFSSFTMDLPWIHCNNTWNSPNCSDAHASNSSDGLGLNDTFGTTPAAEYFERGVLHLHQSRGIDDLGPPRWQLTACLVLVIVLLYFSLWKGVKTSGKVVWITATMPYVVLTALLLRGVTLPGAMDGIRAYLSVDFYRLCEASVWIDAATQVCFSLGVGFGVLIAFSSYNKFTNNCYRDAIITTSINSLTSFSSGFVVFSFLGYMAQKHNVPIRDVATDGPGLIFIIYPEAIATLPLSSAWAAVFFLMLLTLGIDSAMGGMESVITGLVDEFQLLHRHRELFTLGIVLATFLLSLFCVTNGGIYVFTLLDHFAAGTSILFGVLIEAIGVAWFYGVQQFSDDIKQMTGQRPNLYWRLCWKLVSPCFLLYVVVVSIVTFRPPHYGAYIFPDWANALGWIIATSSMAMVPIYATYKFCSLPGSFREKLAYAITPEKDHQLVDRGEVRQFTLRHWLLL
// units = nM; emit number, no label

Examples from the recorded data:
smiles: NC(=O)c1ccc([C@@H]2CN3CCC[C@@H]3c3ccccc32)cc1
Ki (nM): 84.5
--
smiles: Clc1ccc([C@@H]2CN3CCC[C@H]3c3ccccc32)cc1Cl
Ki (nM): 30.8
--
smiles: Br.COc1ccc([C@@H]2CN3CCC[C@H]3c3ccccc32)cc1
Ki (nM): 119
--
smiles: Br.c1ccc2c(c1)[C@@H](C1CCCCC1)CN1CCC[C@@H]21
Ki (nM): 604
--
smiles: COc1cccc([C@@H]2CN3CCC[C@@H]3c3ccccc32)c1
Ki (nM): 15.8

molecule c1ccc([C@H]2CN3CC[C@H]3c3ccccc32)cc1 , Ki observed: 81.6

molecule Clc1cccc2c1[C@H](c1ccccc1)CN1CCC[C@H]21 , Ki observed: 25.3

molecule Br.c1ccc([C@H]2CN3CCC[C@H]3c3ccsc32)cc1 , Ki observed: 5.2

molecule Clc1ccc([C@@H]2CN3CCC[C@H]3c3cc(Cl)ccc32)cc1 , Ki observed: 65.1

molecule Cl.c1ccc([C@@H]2CN3CCC[C@H]3c3ccccc32)cc1 , Ki observed: 160

* * *

biological target: Sodium-dependent serotonin transporter (Rattus norvegicus); assay: Inhibition of tritiated serotonin(5-HT) uptake at 0.1 uM concentration; type: functional
measure: inhibition (%)
// units = %; emit number, no label

smiles: Br.Fc1c(F)c(F)c([C@@H]2CN3CCC[C@@H]3c3ccccc32)c(F)c1F
study.system: Sodium-dependent serotonin transporter (Rattus norvegicus)
result.units: %
inhibition: 2

compound Br.COc1ccc2c(c1)[C@@H]1CCCN1C[C@H]2c1ccccc1 , inhibition observed: 21

compound COc1ccccc1[C@@H]1CN2CCC[C@H]2c2ccccc21 , inhibition observed: -2

compound Clc1cccc([C@@H]2CN3CCC[C@H]3c3ccccc32)c1 , inhibition observed: 11

compound Br.Oc1cc2c(cc1O)[C@@H]1CCCN1C[C@H]2c1ccccc1 , inhibition observed: 0

compound Clc1cccc2c1[C@H]1CCCN1C[C@H]2c1ccccc1 , inhibition observed: 22

compound Br.COc1cc2c(cc1OC)[C@@H]1CCCN1C[C@H]2c1ccccc1 , inhibition observed: 10

compound Br.Fc1c(F)c(F)c([C@@H]2CN3CCC[C@H]3c3ccccc32)c(F)c1F , inhibition observed: 4

compound Br.Clc1ccccc1[C@@H]1CN2CCC[C@H]2c2ccccc21 , inhibition observed: 19

* * *

target: UniProt P31652; test: Ability to inhibit the uptake of [3H]- serotonin(5-HT) 0.1 uM concentration at rat brain synaptosomes; assay type: functional, subcellular
Sequence (P31652 whole entry): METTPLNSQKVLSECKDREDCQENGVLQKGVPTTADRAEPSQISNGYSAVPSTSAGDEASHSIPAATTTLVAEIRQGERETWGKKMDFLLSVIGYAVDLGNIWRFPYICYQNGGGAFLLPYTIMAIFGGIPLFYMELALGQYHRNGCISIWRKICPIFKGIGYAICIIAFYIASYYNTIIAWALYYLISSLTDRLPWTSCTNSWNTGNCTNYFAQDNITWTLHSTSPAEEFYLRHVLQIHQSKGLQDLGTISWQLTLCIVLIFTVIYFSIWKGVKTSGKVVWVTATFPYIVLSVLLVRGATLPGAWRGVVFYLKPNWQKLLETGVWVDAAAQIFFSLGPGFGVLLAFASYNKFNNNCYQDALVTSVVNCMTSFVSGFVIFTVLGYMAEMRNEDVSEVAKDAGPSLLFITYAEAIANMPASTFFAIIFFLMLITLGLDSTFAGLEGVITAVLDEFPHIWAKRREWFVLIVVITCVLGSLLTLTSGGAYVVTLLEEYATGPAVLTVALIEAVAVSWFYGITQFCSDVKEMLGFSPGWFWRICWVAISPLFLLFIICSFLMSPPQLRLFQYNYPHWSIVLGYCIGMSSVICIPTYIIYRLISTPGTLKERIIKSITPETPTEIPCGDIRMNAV
measure: inhibition (%)
// units = %; emit number, no label

compound C[C@@]12CCCCN1C[C@@H](c1ccccc1)c1ccccc12 , inhibition observed: 4

compound Br.c1ccc([C@H]2Cc3ccccc3[C@@H]3CCCN23)cc1 , inhibition observed: -9

compound N#Cc1ccccc1[C@@H]1CN2CCC[C@@H]2c2ccccc21 , inhibition observed: 6

compound FC(F)(F)c1ccccc1[C@@H]1CN2CCC[C@H]2c2ccccc21 , inhibition observed: 4

compound FC(F)(F)c1cc([C@@H]2CN3CCC[C@H]3c3ccccc32)cc(C(F)(F)F)c1 , inhibition observed: -3

compound c1ccc([C@H]2CN3CC[C@@H]4CCCC[C@@]43c3ccccc32)cc1 , inhibition observed: 9

compound c1ccc([C@@]23CCCN2CCc2ccccc23)cc1 , inhibition observed: 4

compound Br.FC(F)(F)c1ccccc1[C@@H]1CN2CCC[C@@H]2c2ccccc21 , inhibition observed: 2

compound FC(F)(F)c1ccc([C@@H]2CN3CCC[C@H]3c3ccccc32)cc1 , inhibition observed: 15

compound c1ccc([C@@H]2CN3CCC[C@H]3c3ccccc32)cc1 , inhibition observed: -10

* * *

target: Sodium-dependent dopamine transporter (Rattus norvegicus); experiment: Ability to inhibit the uptake of [3H]dopamine (DA) 0.1 uM concentration at rat brain synaptosomes; type: functional, subcellular
measure: inhibition (%)
// units = %; emit number, no label

Examples from the recorded data:
smiles: FC(F)(F)c1ccccc1[C@@H]1CN2CCC[C@H]2c2ccccc21
assay.value: 0
--
smiles: C[C@@H]1[C@@H](c2ccccc2)c2ccccc2[C@@H]2CCCN12
assay.value: 0
--
smiles: c1ccc([C@@H]2CN3CC[C@@H]4CCCC[C@@]43c3ccccc32)cc1
assay.value: 33
--
smiles: Br.CCCCc1ccc([C@@H]2CN3CCC[C@H]3c3ccccc32)cc1
assay.value: 5

# evaluate next
With Sodium-dependent dopamine transporter (Rattus norvegicus) as the test system, O=C(O)c1ccccc1[C@@H]1CN2CCC[C@H]2c2ccccc21 showed inhibition of 5

* * *

species: Mus musculus; test: Antagonism of tetrabenazine (TBZ)-induced depression in mice measured for ptosis; type: functional; details: Mus musculus; read-out: ED50
measure: ED50

compound: Fc1ccc([C@@H]2CN3CCC[C@@H]3c3ccccc32)cc1
assay.value: ~0.2 mg/kg

compound: Br.Clc1ccc([C@@H]2CN3CCC[C@@H]3c3ccccc32)cc1
assay.value: 0.34 mg/kg

compound: FC(F)(F)c1cccc([C@@H]2CN3CCC[C@@H]3c3ccccc32)c1 (stereo in doubt; 37b)
assay.value: 0.58 mg/kg

compound: CCN1Cc2ccccc2C(c2ccccc2)C1 (stereo not given)
assay.value: ~10 mg/kg

compound: Br.O=[N+]([O-])c1ccc([C@@H]2CN3CCC[C@@H]3c3ccccc32)cc1
assay.value: 0.08 mg/kg

compound: Br.c1ccc([C@H]2CN3CCC[C@H]3c3[nH]c4ccccc4c32)cc1
assay.value: 0.3 mg/kg

compound Br.COc1ccc([C@@H]2CN3CCC[C@@H]3c3ccccc32)cc1 , ED50 observed: 0.03 mg/kg

compound COc1ccc([C@@H]2CN3CCC[C@H]3c3ccccc32)cc1OC , ED50 observed: 29.4 mg/kg

compound N#Cc1ccccc1[C@@H]1CN2CCC[C@@H]2c2ccccc21 , ED50 observed: > 3 mg/kg

compound C[C@@]12CCCN1C[C@H](c1ccccc1)c1ccccc12 , ED50 observed: 3.8 mg/kg

compound Br.Oc1cccc([C@@H]2CN3CCC[C@H]3c3ccccc32)c1 , ED50 observed: 3.1 mg/kg

compound Br.Clc1cccc([C@@H]2CN3CCC[C@@H]3c3ccccc32)c1 , ED50 observed: < 1 mg/kg

compound C[C@H]1[C@H](c2ccccc2)c2ccccc2[C@@H]2CCCN21 , ED50 observed: 3.3 mg/kg

* * *

target: Muscarinic acetylcholine receptor (Rattus norvegicus) (UniProt P08482+P08483+P08485+P08911+P10980); test: Binding affinity towards Muscarinic acetylcholine receptor at 1.0 uM concentration; assay type: protein assay
measure: inhibition (%)
// units = %; emit number, no label

Examples from the recorded data:
molecule: Br.Oc1ccc([C@@H]2CN3CCC[C@@H]3c3ccccc32)cc1O
measure: inhibition
assay.value: 0
//
molecule: Br.COc1ccc([C@@H]2CN3CCC[C@@H]3c3ccccc32)cc1OC
measure: inhibition
assay.value: -1
//
molecule: Clc1ccccc1[C@@H]1CN2CCC[C@@H]2c2ccccc21 (stereo in doubt; 24b)
measure: inhibition
assay.value: 6
//
molecule: Br.Oc1cc2c(cc1O)[C@H]1CCCN1C[C@H]2c1ccccc1
measure: inhibition
assay.value: 0
//
molecule: Br.CSc1ccc([C@@H]2CN3CCC[C@H]3c3ccccc32)cc1
measure: inhibition
assay.value: 0

molecule Br.Clc1ccc([C@@H]2CN3CCC[C@@H]3c3ccccc32)cc1 , inhibition observed: 0

molecule Clc1ccc([C@@H]2CN3CCC[C@@H]3c3ccccc32)cc1Cl , inhibition observed: 9

molecule Br.Oc1ccc([C@@H]2CN3CCC[C@@H]3c3ccccc32)cc1 , inhibition observed: 3

molecule FC(F)(F)c1cccc([C@@H]2CN3CCC[C@@H]3c3ccccc32)c1 (stereo in doubt; 37b) , inhibition observed: 1

molecule Br.Fc1ccc([C@@H]2CN3CCC[C@@H]3c3cc(F)ccc32)cc1 , inhibition observed: 0

molecule COc1cccc([C@@H]2CN3CCC[C@@H]3c3ccccc32)c1 , inhibition observed: 1

* * *

biological target: Norepinephrine transporter (Rattus norvegicus); assay: Ability to inhibit the uptake of [3H]norepinephrine (NE) 0.1 uM concentration at rat brain synaptosomes; format: functional, subcellular
measure: inhibition (%)
// units = %; emit number, no label

Examples from the recorded data:
smiles: O=[N+]([O-])c1ccc([C@@H]2CN3CCC[C@H]3c3ccccc32)cc1
measure: inhibition
result.units: %
assay.value: 10
//
smiles: FC(F)(F)c1cc([C@@H]2CN3CCC[C@H]3c3ccccc32)cc(C(F)(F)F)c1
measure: inhibition
result.units: %
assay.value: 0
//
smiles: FC(F)(F)c1ccccc1[C@@H]1CN2CCC[C@H]2c2ccccc21
measure: inhibition
result.units: %
assay.value: 12
//
smiles: c1ccc(C[C@H]2CN3CCC[C@H]3c3ccccc32)cc1
measure: inhibition
result.units: %
assay.value: 69
//
smiles: FC(F)(F)c1ccc([C@@H]2CN3CCC[C@H]3c3ccccc32)cc1
measure: inhibition
result.units: %
assay.value: -1
//
smiles: Br.c1ccc([C@@H]2CN3CCCCC[C@H]3c3ccccc32)cc1
measure: inhibition
result.units: %
assay.value: 13
//
smiles: Br.Nc1ccc([C@@H]2CN3CCC[C@H]3c3ccccc32)cc1
measure: inhibition
result.units: %
assay.value: 89
//
smiles: C[C@H]1[C@H](c2ccccc2)c2ccccc2[C@@H]2CCCN21
measure: inhibition
result.units: %
assay.value: 62
//
smiles: N#Cc1ccccc1[C@@H]1CN2CCC[C@@H]2c2ccccc21
measure: inhibition
result.units: %
assay.value: 71
//
smiles: Br.CCCCc1ccc([C@@H]2CN3CCC[C@H]3c3ccccc32)cc1
measure: inhibition
result.units: %
assay.value: 13

# evaluate next
molecule C[C@@]12CCCN1C[C@@H](c1ccccc1)c1ccccc12 , inhibition observed: 2
